ASSAY SYSTEM: human dopamine D3 receptor (Homo sapiens)
Construct: expressed in transfected cells; host or cells: CHO
Sequence (P35462 whole entry): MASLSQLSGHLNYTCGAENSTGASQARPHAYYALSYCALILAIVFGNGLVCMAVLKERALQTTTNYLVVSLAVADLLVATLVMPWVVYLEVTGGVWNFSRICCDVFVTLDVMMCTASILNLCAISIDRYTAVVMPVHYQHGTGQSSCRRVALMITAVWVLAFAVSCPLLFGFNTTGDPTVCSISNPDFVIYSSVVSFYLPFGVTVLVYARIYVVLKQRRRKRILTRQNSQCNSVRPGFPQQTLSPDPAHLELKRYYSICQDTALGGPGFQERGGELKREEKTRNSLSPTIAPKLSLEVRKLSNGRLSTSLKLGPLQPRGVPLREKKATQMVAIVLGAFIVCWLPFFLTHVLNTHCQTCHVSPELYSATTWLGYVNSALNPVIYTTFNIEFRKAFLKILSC
ASSAY COMMENT: Radioligand binding assay, human dopamine D3 receptors ([3H]Spiperone)
APPLIED CONDITIONS: human; Example 100 table; read-out: IC50 (nM) D3
READOUT LABEL: IC50

{"columns": ["COMPOUND", "READOUT LABEL", "VALUE REPORTED"],
 "data": [
  ["CN1CCCC1CCNc1nc(C2(c3ccc(Cl)cc3)CCCCC2)cs1 (stereo not drawn)", "IC50", "< 1000 nM"],
  ["CCN1CCCC1CNc1nc(C2(c3ccccc3F)CCCCC2)cs1 (racemic)", "IC50", "< 1000 nM"],
  ["CN1CCCC1CCNc1nc(C2(c3ccccc3F)CCCCC2)cs1 (racemic) [Compound 128]", "IC50", "< 100 nM"],
  ["CN1CCCN(c2nc(C3(c4ccc(Cl)cc4)CCCC3)cs2)CC1", "IC50", "< 100 nM"],
  ["CCN(CC)CCCNc1nc(C2(c3cccc(Cl)c3)CCOCC2)cs1", "IC50", "> 1000 nM"],
  ["Clc1ccc(C2(c3csc(N4CCNCC4)n3)CCCC2)cc1", "IC50", "< 1000 nM"],
  ["Clc1ccc(C2(c3csc(NCCCN4CCOCC4)n3)CCCC2)cc1", "IC50", "> 1000 nM"],
  ["Cc1c(-c2csc(N3CCN(C)CC3)n2)sc2ccc(Cl)cc12", "IC50", "> 1000 nM"],
  ["Clc1ccc(C2(c3csc(N4CCOCC4)n3)CCOCC2)cc1", "IC50", "> 1000 nM"]
]}

====

ASSAY SYSTEM: human serotonin 5-HT2A receptor (Homo sapiens, UniProt P28223)
Construct: expressed in transfected cells; host or cells: CHO-K1
Sequence (P28223 whole entry): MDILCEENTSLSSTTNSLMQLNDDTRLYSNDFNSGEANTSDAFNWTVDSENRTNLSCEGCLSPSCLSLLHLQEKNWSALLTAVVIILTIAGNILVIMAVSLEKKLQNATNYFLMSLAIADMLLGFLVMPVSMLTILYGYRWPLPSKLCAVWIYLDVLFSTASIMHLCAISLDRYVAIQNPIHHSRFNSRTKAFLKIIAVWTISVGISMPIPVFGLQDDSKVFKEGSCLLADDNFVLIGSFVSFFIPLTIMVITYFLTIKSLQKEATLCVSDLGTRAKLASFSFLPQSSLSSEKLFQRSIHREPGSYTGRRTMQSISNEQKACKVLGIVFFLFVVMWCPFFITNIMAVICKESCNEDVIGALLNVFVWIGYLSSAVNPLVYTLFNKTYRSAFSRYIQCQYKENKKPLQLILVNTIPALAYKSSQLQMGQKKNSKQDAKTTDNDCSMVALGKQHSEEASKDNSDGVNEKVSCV
ASSAY COMMENT: Radioligand binding assay, human 5-HT2A receptors ([3H]Ketanserin)
APPLIED CONDITIONS: human 5-HT2a; Example 16 table; read-out: IC50 (nM) 5-HT2a

{"columns": ["STRUCTURE SMILES STRING", "IC50"],
 "data": [
  ["CN1CCN(c2nc(C3(c4cccc(Cl)c4)CCOCC3)cs2)CC1", "> 1000 nM"],
  ["CN1CCC(c2nc(C3(c4ccc(Cl)cc4)CCC3)cs2)CC1", "> 1000 nM"],
  ["CN1CCN(c2nc(C3(c4ccc(Cl)cc4)CCC3)cs2)CC1", "< 1000 nM"],
  ["CN1CCN(c2nc(C3(c4ccc(Cl)cc4)CCCCC3)cs2)CC1", "> 1000 nM"],
  ["CN1CCN(c2nc(C3(c4ccc(C(F)(F)F)cc4)CCOCC3)cs2)CC1", "> 1000 nM"],
  ["CN1CCC(c2nc(C3(c4ccc(Cl)cc4)CCCCC3)cs2)CC1", "< 1000 nM"]
]}

====

IC50 overview
ASSAY SYSTEM: human serotonin 5-HT2C receptor (Homo sapiens, UniProt P28335)
Construct: expressed in transfected cells; host or cells: CHO-K1
Sequence (P28335 33-458): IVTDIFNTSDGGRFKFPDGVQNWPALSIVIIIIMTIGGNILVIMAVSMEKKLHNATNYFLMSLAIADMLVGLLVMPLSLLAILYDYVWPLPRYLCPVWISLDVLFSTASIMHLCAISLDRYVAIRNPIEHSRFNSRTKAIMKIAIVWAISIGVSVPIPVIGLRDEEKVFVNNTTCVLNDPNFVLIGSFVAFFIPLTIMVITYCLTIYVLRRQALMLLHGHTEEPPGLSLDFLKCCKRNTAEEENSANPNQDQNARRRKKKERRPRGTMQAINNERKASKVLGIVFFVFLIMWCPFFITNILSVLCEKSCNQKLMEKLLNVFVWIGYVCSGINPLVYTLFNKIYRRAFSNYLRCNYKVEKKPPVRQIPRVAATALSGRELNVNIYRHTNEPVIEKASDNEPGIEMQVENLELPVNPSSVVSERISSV
ASSAY COMMENT: Radioligand binding assay, human 5-HT2C receptors ([3H]Mesulergine)
APPLIED CONDITIONS: IC50 (nM) 5-HT2c, human 5-HT2c; Example 16 table

{"columns": ["COMPOUND", "ASSAY SYSTEM", "IC50"],
 "data": [
  ["CN1CCN(c2nc(C3(c4ccc(Cl)cc4)CCOCC3)cs2)CC1", "human serotonin 5-HT2C receptor (Homo sapiens, UniProt P28335)", "< 1000 nM"],
  ["CN1CCN(c2nc(C3(c4ccc(F)cc4)CCOCC3)cs2)CC1", "human serotonin 5-HT2C receptor (Homo sapiens, UniProt P28335)", "> 1000 nM"],
  ["CN1CCN(c2nc(C3(c4ccccc4)CCOCC3)cs2)CC1", "human serotonin 5-HT2C receptor (Homo sapiens, UniProt P28335)", "> 1000 nM"],
  ["CN1CCCC1CCNc1nc(C2(c3ccc(Cl)cc3)CCC2)no1 (stereo not shown)", "human serotonin 5-HT2C receptor (Homo sapiens, UniProt P28335)", "< 1000 nM"]
]}

====

ASSAY SYSTEM: human muscarinic M2 receptor (Homo sapiens, UniProt P08172)
Construct: expressed in transfected cells; host or cells: BSR-M2H
Sequence (P08172 whole entry): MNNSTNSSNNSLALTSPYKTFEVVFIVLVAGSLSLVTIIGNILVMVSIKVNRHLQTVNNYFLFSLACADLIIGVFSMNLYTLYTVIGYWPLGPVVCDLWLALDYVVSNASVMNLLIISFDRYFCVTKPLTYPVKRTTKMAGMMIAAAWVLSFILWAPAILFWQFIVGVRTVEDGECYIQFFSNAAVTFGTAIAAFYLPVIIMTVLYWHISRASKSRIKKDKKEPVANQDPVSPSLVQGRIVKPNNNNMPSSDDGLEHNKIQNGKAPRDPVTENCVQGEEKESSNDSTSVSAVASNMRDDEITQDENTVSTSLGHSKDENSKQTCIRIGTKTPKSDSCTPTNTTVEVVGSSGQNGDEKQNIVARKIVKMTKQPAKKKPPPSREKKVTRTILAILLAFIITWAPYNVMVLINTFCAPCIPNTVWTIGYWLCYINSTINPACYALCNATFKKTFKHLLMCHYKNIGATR
ASSAY COMMENT: Binding to human muscarinic M2 receptors ([3H]N-methylscopolamine)
pIC50: −log10 of the molar value.
READOUT LABEL: pIC50

{"columns": ["STRUCTURE SMILES STRING", "VALUE REPORTED"],
 "data": [
  ["CN1CCN(c2nc(C3(c4ccccc4)CCOCC3)cs2)CC1", "< 6.00"]
]}

====

ASSAY SYSTEM: human muscarinic M1 receptor (Homo sapiens)
Construct: expressed in transfected cells; host or cells: BSR-M1H
Sequence (P11229 whole entry): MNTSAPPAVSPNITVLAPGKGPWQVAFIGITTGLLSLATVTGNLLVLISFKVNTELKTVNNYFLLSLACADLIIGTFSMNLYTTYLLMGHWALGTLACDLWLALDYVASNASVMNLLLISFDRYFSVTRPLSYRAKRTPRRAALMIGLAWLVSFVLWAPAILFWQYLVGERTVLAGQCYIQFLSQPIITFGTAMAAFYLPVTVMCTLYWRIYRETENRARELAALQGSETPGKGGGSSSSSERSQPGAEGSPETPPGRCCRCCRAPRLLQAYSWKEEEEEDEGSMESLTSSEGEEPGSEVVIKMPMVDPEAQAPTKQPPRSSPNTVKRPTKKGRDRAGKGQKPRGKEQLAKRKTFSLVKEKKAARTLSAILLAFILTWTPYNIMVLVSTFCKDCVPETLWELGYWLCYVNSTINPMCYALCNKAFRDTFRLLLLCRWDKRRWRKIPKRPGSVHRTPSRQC
ASSAY COMMENT: Binding to human muscarinic M1 receptors ([3H]N-methylscopolamine)
APPLIED CONDITIONS: human; Example 101 table; read-out: IC50 (nM) M1
Catalogue of IC50 values
READOUT LABEL: IC50

{"columns": ["STRUCTURE SMILES STRING", "ASSAY SYSTEM", "VALUE REPORTED"],
 "data": [
  ["CN1CCN(c2nc(C3(c4csc5ccc(Cl)cc45)CCOCC3)cs2)CC1", "human muscarinic M1 receptor (Homo sapiens)", "> 1000 nM"],
  ["CN1CCN(c2nc(C3(c4ccccc4F)CCCCC3)cs2)CC1", "human muscarinic M1 receptor (Homo sapiens)", "< 500 nM"],
  ["Clc1ccc(C2(c3csc(N4CCNCC4)n3)CCOCC2)cc1", "human muscarinic M1 receptor (Homo sapiens)", "< 500 nM"],
  ["CN1CCN(c2nc(C3(c4cccc(Cl)c4)CCOCC3)cs2)CC1", "human muscarinic M1 receptor (Homo sapiens)", "> 1000 nM"],
  ["CN1CCN(c2nc(C3(c4ccccc4F)CCCC3)cs2)CC1", "human muscarinic M1 receptor (Homo sapiens)", "< 500 nM"]
]}

====

ASSAY SYSTEM: human muscarinic M4 receptor (Homo sapiens, UniProt P08173)
Construct: expressed in transfected cells; host or cells: BSR-M4H
Sequence (P08173 1-479): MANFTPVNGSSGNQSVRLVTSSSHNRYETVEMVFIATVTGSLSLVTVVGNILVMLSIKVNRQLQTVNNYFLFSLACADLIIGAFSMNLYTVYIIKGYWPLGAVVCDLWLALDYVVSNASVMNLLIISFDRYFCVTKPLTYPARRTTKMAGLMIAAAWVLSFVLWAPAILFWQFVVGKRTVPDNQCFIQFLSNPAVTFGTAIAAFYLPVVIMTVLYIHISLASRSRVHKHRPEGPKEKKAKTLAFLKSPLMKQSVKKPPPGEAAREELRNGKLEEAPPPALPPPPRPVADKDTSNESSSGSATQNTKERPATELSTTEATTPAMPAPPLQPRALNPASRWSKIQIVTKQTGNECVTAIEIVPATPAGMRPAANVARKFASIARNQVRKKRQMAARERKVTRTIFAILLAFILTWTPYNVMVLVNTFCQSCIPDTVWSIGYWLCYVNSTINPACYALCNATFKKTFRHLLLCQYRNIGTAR
ASSAY COMMENT: Binding to human muscarinic M4 receptors ([3H]N-methylscopolamine)
pIC50: −log10 of the molar value.

{"columns": ["STRUCTURE SMILES STRING", "pIC50"],
 "data": [
  ["CN1CCN(c2nc(C3(c4ccccc4)CCOCC3)cs2)CC1", "< 6.00"]
]}

====

ASSAY SYSTEM: human serotonin 5-HT2A receptor (Homo sapiens, UniProt P28223)
Construct: expressed in transfected cells; host or cells: CHO-K1
ASSAY COMMENT: Radioligand binding assay, human 5-HT2A receptors ([3H]Ketanserin)
APPLIED CONDITIONS: human; Example 100 table; read-out: IC50 (nM) 5-HT2A
Parameter: IC50. Scope: all listed entries.
READOUT LABEL: IC50

{"columns": ["COMPOUND", "READOUT LABEL", "VALUE REPORTED"],
 "data": [
  ["COc1cccc(C2(c3csc(N4CCN(C)CC4)n3)CCOCC2)c1 [Compound 67]", "IC50", "> 1000 nM"],
  ["CN1CCCC1CCNc1nc(C2(c3ccccc3F)CCCCC2)cs1 (single isomer, unassigned) [Compound 129]", "IC50", "< 1000 nM"],
  ["CNC1CCN(c2nc(C3(c4ccc(Cl)cc4)CCCCC3)cs2)C1 (centres unmarked) [Compound 106]", "IC50", "> 1000 nM"],
  ["CN1CCCC1CCNc1nc(C2(c3ccccc3F)CCCCC2)cs1 (single isomer, unassigned) [Compound 130]", "IC50", "< 100 nM"],
  ["CN1CCCC1CCNc1nc(C2(c3ccccc3F)CCCCC2)cs1 (racemic) [Compound 128]", "IC50", "< 100 nM"],
  ["CN1CCCN(c2nc(C3(c4ccc(Cl)cc4)CCCC3)cs2)CC1 [Compound 105]", "IC50", "< 1000 nM"],
  ["CN1CCCC1CCNc1nc(C2(c3ccc(Cl)cc3)CCCCC2)cs1 (centres unmarked) [Compound 95]", "IC50", "< 1000 nM"],
  ["CCN(CC)CCCNc1nc(C2(c3ccc(Cl)cc3)CCCCC2)cs1 [Compound 103]", "IC50", "< 1000 nM"]
]}
